The origin of these recorded values is PubChem BioAssay AID1159580.

ASSAY_INFO: chemical genetic growth profiling, strain panel (AID 1159580);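 further: tested at 20 µM; growth read once vehicle control cultures reached saturation at 30 °C; 1 = growth at the plate median or of vehicle wells; lower values mean less growth of the strain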
MEASUREMENT_CONTEXT: S. cerevisiae deletion strains, growth OD, locus YDR101C, strain arx1, hits give low values
Out of some 5,500 compounds screened, about 2,000 (36%) were called active. Not shown: some 18% with an inconclusive outcome. This is one part of the list.
ASSAY_READOUT: normalized growth
The reply should be a number, written without any unit.

Sample answers from the record:
* NNCc1cccc(O)c1 | 0.989
* CC[N+](C)(C)c1cccc(O)c1 | 0.966
* Cc1c(C)c2c(c(C)c1O)CCC(C)(CCCC(C)CCCC(C)CCCC(C)C)O2 (centres undefined) | 1.01

Tell me the measured normalized growth of CC(C)CCCC(C)C1CC[C@@]2(C)C3=C(CC[C@]12C)[C@@]1(C)CC[C@H](O)C(C)(C)C1CC3 (some centres undefined) , please.
0.996

Tell me the measured normalized growth of CC(C)=CCCC(C)[C@@H]1CC[C@]2(C)C3=C(CC[C@@]12C)C1(C)CC[C@H](O)C(C)(C)C1CC3 (some centres undefined) , please.
0.967

Tell me the measured normalized growth of Oc1cccc(O)c1 , please.
0.981

Tell me the measured normalized growth of CC(C)=CCCC(C)C1CC[C@@]2(C)C3=C(CC[C@]12C)C1(C)CC[C@H](O)C(C)(C)C1CC3 (some centres undefined) , please.
1.01

Tell me the measured normalized growth of CC(=O)O[C@H]1CCC2(C)C3=C(CCC2C1(C)C)[C@@]1(C)CC[C@@H](C(C)CCC=C(C)C)[C@]1(C)CC3 (some centres undefined) , please.
1.02

Tell me the measured normalized growth of CC(=O)OCC(=O)[C@@]1(O)[C@H](C)CC2C3CCC4=CC(=O)C=C[C@]4(C)[C@@]3(F)[C@@H](O)C[C@@]21C (some centres undefined) , please.
1.02
